Values compiled from patent US20150104459A1.

Biological target: recombinant soluble homotrimeric HA of A/Netherlands/219/03 (H7N7) (Influenza A virus A/Netherlands/219/03 (H7N7))
Experiment: HA microarray, BCC supernatant
Conditions: remark: other sources report otherwise
measured_parameter: Trimeric HA Binding RLU (RLU)
Response body: numeric value in RLU, unit text excluded.

Fill blank: measured Trimeric HA Binding RLU of the binder TCN-563 (5237_B21) (antibody, V domains shown) VH: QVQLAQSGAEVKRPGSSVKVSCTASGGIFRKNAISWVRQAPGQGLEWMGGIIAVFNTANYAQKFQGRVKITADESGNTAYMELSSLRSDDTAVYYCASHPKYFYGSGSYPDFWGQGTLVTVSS VL: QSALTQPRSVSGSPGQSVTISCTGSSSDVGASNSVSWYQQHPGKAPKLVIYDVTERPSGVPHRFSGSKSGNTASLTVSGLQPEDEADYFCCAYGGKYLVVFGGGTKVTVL is ____.
7520
